These entries and their values trace back to patent US20090069373A1.

Property: Binding ratio a/b; scope: individual compounds
Molecular target: human LXRβ (Homo sapiens)
Construct: biotin (biotinylated; biotinylation tag not described); made in house; host or cells: E. coli
Experiment: Ligand-binding test procedure for human LXRβ (3H T0901317 competition, flash plates)
Settings: IC50 (μM) LXRα binding/IC50 (μM) LXRβ binding
Description: Ligand-Binding Test Procedure for Human LXRβ. Receptor source: E. coli extract from cells expressing biotinylated hLXRβ. Extract was made in a similar buffer as above, but with 50 mM TRIS. Washed streptavidin and coated flash plates with wash buffer. Diluted receptor extract to give Bmax ˜4000 cpm and add to the wells. Wrapped the plates in aluminum foil and stored them at +4° C. over night. Made a dilution series in DMSO of the test ligands. […] Measured the remaining radioactivity in the plate.
Enter a number only.

Consider the reported Binding ratio a/b for these compounds:
Return reported Binding ratio a/b; argument: `O=C(O)Cc1cccc2cc(OCc3cccc(-c4c(Cc5ccccc5)cnc5c(C(F)(F)F)cccc45)c3)ccc12`
5

Do the same for `CSCC[C@H](NC(=O)c1cccc(COc2cccc(-c3c(Cc4ccccc4)cnc4c(C(F)(F)F)cccc34)c2)c1)C(=O)O` please
3

Do the same for `O=C(O)c1ccc(NCc2cccc(-c3c(Cc4ccccc4)cnc4c(C(F)(F)F)cccc34)c2)cc1Cl` please
3

Do the same for `O=C(O)Cc1cccc2cc(OCc3cccc(-c4ccnc5c(C(F)(F)F)cccc45)c3)ccc12` please
4

Do the same for `O=C(O)c1cccc(NCc2cccc(-c3c(Cc4ccccc4)cnc4c(C(F)(F)F)cccc34)c2)c1` please
6

New cases:
Return reported Binding ratio a/b; argument: `Cc1cc(NCc2cccc(-c3c(Cc4ccccc4)cnc4c(C(F)(F)F)cccc34)c2)ccc1C(=O)O`
3

Do the same for `O=C(O)c1c(F)cccc1NCc1cccc(-c2c(Cc3ccccc3)cnc3c(C(F)(F)F)cccc23)c1` please
5

----------
Property: Binding ratio a/b; scope: individual compounds
Molecular target: human LXRβ (Homo sapiens, UniProt P55055)
Construct: biotin (biotinylated; biotinylation tag not described); made in house; host or cells: E. coli
Test: Ligand-binding test procedure for human LXRβ (3H T0901317 competition, flash plates)
Conditions: IC50 (μM) LXRα binding/IC50 (μM) LXRβ binding
Enter a number only.

Consider the reported Binding ratio a/b for these compounds:
Notebook entry, human LXRβ (Homo sapiens, UniProt P55055) assay: Binding ratio a/b of Cc1ccc(CC(=O)O)c(NCc2cccc(-c3c(Cc4ccccc4)cnc4c(C(F)(F)F)cccc34)c2)c1C [Example 35] = ?
7

Do the same for Cc1ccc(CC(=O)O)cc1OCc1cccc(-c2c(Cc3ccccc3)cnc3c(C(F)(F)F)cccc23)c1 [Example 62] please
5

Do the same for O=C(O)C1CCN(C(=O)c2ccc(COc3cccc(-c4c(Cc5ccccc5)cnc5c(C(F)(F)F)cccc45)c3)cc2)CC1 [Example 60] please
5

Do the same for O=C(O)c1cc2ccccc2cc1NCc1cccc(-c2c(Cc3ccccc3)cnc3c(C(F)(F)F)cccc23)c1 [Example 78] please
3

New cases:
Notebook entry, human LXRβ (Homo sapiens, UniProt P55055) assay: Binding ratio a/b of O=C(O)c1c[nH]c2c(NCc3cccc(-c4c(Cc5ccccc5)cnc5c(C(F)(F)F)cccc45)c3)cccc12 [Example 83] = ?
3

----------
Target: human LXRβ (Homo sapiens, UniProt P55055)
Sequence (P55055 1-460): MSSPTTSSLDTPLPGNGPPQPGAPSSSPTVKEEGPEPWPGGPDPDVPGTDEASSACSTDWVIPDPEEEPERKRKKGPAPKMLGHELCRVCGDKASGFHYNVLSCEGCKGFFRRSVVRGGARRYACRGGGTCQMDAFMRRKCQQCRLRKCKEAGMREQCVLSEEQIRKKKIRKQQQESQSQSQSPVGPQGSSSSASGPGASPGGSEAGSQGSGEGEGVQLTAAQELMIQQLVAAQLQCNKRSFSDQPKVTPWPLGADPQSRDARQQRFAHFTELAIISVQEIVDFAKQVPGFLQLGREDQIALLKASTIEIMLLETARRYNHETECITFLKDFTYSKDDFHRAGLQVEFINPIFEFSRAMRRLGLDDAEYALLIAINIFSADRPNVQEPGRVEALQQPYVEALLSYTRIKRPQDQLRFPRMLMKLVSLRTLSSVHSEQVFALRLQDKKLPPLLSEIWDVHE
Mark each entry True if its IC50 sits below 0.05 µM, and False for all others.

Completed entries (count: 3):
Below 0.05 µM on IC50? Entry `O=C(O)c1c(F)cccc1NCc1cccc(-c2c(Cc3ccccc3)cnc3c(C(F)(F)F)cccc23)c1`
True

Do the same for `Cc1cnc2c(C(F)(F)F)cccc2c1-c1cccc(CNc2cccc3c(CC(=O)O)cccc23)c1` please
True

Do the same for `O=C(O)c1cc2ccccc2cc1OCc1cccc(-c2c(Cc3ccccc3)cnc3c(C(F)(F)F)cccc23)c1` please
False

New cases:
Below 0.05 µM on IC50? Entry `O=C(O)C1CCN(C(=O)c2ccc(COc3cccc(-c4c(Cc5ccccc5)cnc5c(C(F)(F)F)cccc45)c3)cc2)CC1`
True

Do the same for `O=C(O)c1cc2ccccc2cc1NCc1cccc(-c2c(Cc3ccccc3)cnc3c(C(F)(F)F)cccc23)c1` please
False
